# targetOrSystem: T1, RBFOX1 RRM RbFoxmut (Fox-RRM*) (Homo sapiens, UniProt Q9NWB1 109-208, R118D;E147R;N151S;E152T)
# T1 sequence: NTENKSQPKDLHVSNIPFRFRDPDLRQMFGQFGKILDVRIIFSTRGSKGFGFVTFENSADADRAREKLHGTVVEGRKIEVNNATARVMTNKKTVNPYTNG
# testDetails: EMSA; HiTS-Eq, 1 nM pool, 10 min; buffer printed only for the single-RNA assays: 10 mM Tris pH 7.5, 150 mM NaCl, 3.4 mM EDTA, 0.001% NP-40, 30 C
# runParameters: tags: His6 N-terminal (pET28a); label: 5' 32P
In all, about 16,000 sequences were measured (“ka relative to ugcaugu”: median about 0.096, highest 2% from about 0.35 on). The list comes from a sample in which the highest values are over-represented; it also holds close analogues and randomly drawn sequences.

binder	binding signal
UGUCGUA (DNA:RNA) RNA: GGGAGACCGGAAUUCAGAUUGUCCUGUCGUAUUAAAUCCCGUCGUAGCCACCA DNA 1: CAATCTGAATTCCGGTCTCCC DNA 2: TGGTGGCTACGACGGGATT	0.13 KA relative to UGCAUGU
UGUGUGG (DNA:RNA) RNA: GGGAGACCGGAAUUCAGAUUGUCCUGUGUGGUUAAAUCCCGUCGUAGCCACCA DNA 1: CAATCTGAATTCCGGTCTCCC DNA 2: TGGTGGCTACGACGGGATT	0.173 KA relative to UGCAUGU
UGUAUGC (DNA:RNA) RNA: GGGAGACCGGAAUUCAGAUUGUCCUGUAUGCUUAAAUCCCGUCGUAGCCACCA DNA 1: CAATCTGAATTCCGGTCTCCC DNA 2: TGGTGGCTACGACGGGATT	0.684 KA relative to UGCAUGU
UGUAGGG (DNA:RNA) RNA: GGGAGACCGGAAUUCAGAUUGUCCUGUAGGGUUAAAUCCCGUCGUAGCCACCA DNA 1: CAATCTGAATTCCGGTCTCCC DNA 2: TGGTGGCTACGACGGGATT	0.0751 KA relative to UGCAUGU
